Would you kindly list EC50 for each of these binders?
target: T1, human EGFRvIII protein on the cell surface (human, UniProt P00533 25-1210); test: FACS on U87MG-EGFRvIII cells
T1 construct: whole, on cells; the cell line is named under assay; also called hEGFRvIII; U87MG-hEGFRvIII
Answers are plain numbers, in nM.

Example entries and their recorded answers appear below.
Humanized antibody h63A10A7-19 (antibody, human IgG1, V domains shown, also called VH-g6/VL-g4) VH: QVQLVQSGAEVKKPGASVKVSCKASGYTFISFTMHWVKQRPGQGLEWMGYINPNSGYTKYNQKFKDKATMTRDTSTSTVYMELSSLRSEDTAVYYCTRGGGRGFAYWGQGTLVTVSS VL: DILMTQSPSSLSASVGDRVTITCHASQDINSNIGWLQQKPGKSFKALIYHGTNLEDGVPSRFSGSGSGADYTLTISSLQPEDFATYYCVQYAQFPFTFGQGTKLEIK :: 3.27
Chimeric antibody 75G7 (antibody, human IgG1, V domains shown, also called c75G7C6; chimeric antibody c75G7C6) VH: EVQLQQSGPELVKPGASVKIPCKASGYTFTDYNMDWVKQSHGKSLEWIGDINPNNGDTIYNQKFKGKATLTVDKSSSTAYMELRSLTSEDTAVYYCARGDYDGYYPVYYAMDYWGQGTSVTVSS VL: ENVLTQSPAIMSASPGEKVTMTCRASSSVSSSYLHWYQQKSGASPKLWIFSTSNLAAGVPARFSGSGSGTSYSLTVSSVEAEDAATYYCQQYSGYPLTFGAGTKLELK :: 5.75

Proceeding to the next binder to report its EC50.
Item under review: Humanized antibody h75G7C6-11 (antibody, human IgG1, V domains shown, also called VH-g1/VL-g2) VH: QVQLVQSGAEVKKPGASVKVSCKASGYTFTDYNMDWVRQAPGQGLEWIGDINPNNADTIYNQKFKGRVTLTVDTSTSTVYMELSSLRSEDTAVYYCARGDYDGYYPVYYAMDYWGQGTTVTVSS VL: ENVLTQSPATLSLSPGERATLSCRASSSVSSSYLHWYQQKPGQSPRLLIFSTSNLAAGIPARFSGSGSGTDYTLTISSLEPEDFAVYYCQQYSGYPLTFGGGTKVEIK . Reported EC50?
5.11
